Molecular target: human iPLA2γ (Homo sapiens, UniProt Q9NP80)
Sequence (Q9NP80 1-782): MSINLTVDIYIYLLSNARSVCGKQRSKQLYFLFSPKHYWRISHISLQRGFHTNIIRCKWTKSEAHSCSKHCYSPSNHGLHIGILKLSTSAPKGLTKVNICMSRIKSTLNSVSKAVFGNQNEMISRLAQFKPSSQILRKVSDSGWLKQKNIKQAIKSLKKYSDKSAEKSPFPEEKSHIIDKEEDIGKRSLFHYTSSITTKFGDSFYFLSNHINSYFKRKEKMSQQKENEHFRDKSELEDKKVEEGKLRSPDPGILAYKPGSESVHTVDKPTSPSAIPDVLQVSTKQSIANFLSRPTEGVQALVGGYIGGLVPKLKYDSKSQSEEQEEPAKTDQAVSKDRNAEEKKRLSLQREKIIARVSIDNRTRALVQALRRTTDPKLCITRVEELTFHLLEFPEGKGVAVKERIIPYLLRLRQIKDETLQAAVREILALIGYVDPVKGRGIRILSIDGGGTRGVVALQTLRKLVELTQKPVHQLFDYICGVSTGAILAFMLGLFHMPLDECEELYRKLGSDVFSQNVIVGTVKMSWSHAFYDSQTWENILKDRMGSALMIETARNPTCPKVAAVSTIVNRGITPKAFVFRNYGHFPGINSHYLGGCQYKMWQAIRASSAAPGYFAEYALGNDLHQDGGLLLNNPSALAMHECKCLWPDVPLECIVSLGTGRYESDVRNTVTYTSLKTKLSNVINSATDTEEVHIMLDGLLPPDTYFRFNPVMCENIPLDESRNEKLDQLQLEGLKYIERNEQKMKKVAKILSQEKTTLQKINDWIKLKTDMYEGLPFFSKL
Assay: Inhibition by BEL of phospholipase A2 activity of iPLA2γ in membrane fractions of infected Sf9 cells
Assay type: biochemical
recorded-endpoint: IC50

1) O=C1OC(=CBr)CCC1c1cccc2ccccc12 (stereo not shown) [BEL] | ~3 µM

Ref: patent US20050003388A1
